Molecular target: recombinant human IL-23 (p19/p40) (human) (UniProt Q9NPF7)
Sequence (Q9NPF7 20-189 limits assumed, chain 1 of 2): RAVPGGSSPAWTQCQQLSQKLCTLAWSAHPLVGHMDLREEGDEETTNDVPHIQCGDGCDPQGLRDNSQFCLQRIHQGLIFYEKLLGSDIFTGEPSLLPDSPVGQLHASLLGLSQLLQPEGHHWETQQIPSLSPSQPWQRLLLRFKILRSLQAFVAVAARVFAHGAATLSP
Sequence (P29460 23-328 limits assumed, chain 2 of 2, further chain): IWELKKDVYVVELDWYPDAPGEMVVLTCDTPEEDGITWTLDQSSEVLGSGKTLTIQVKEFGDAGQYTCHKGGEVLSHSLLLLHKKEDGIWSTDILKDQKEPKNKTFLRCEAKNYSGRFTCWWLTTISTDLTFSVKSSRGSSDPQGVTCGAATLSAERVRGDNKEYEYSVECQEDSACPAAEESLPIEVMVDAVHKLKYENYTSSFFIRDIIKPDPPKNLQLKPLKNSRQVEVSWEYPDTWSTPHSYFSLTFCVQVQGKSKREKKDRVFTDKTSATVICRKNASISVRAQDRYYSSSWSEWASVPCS
Assay: cell-based or functional assay
Experimental endpoint: IC50, splenocyte assay, 19 pM hIL-23 (pM)
Expressed in pM, but write only the number.

Exercise: Requested read-out: IC50, splenocyte assay, 19 pM hIL-23. Entry: P23IL20B11-9GS-ALB1-9GS-37D5 (bispecific antibody, part only; not given: anti-albumin Nanobody, part only) chain, part: EVQLVESGGGLVQAGGSLRLSCAVSGDTFSVYGMGWFRQAPGMEREFVAGISWNAGITAYTDTLKGRFTISRDRAKNTMYLQMNSLQPEDTAVYYCAADVTRHYIATRSKVDASMYDYWGQGTQVTVSSGGGGSGGGSGGGGSGGGSEVQLVESGGGLVQPGGSLRLSCAASGFTLDYLAIGWFRQAPGKEREGVSCVSSSGQYTYYADSVKGRFTISRDNAESTVYLQMNSLKPEDTAVYYCATDPECYRVRGYYNGEYDYWGQGTQVTVSS
Solution: 4.47
